Source of measurements: ChEMBL document CHEMBL3612009

assay: Cytotoxicity against mouse L929 cells assessed as cell viability after 96 hrs by alamarBlue assay; type: cell-based
measured endpoint: CC50 at 96 h (µM)
Your answer should be a plain number; it is taken to be in µM.

NC(=S)N/N=C(\COc1ccc(-c2ccccc2)cc1)c1ccc(Br)cc1 = 90.8

stdin: Data request, read-out CC50 at 96 h, for NC(=S)N/N=C(\COc1ccc(F)c(Cl)c1)c1ccc(Br)cc1
stdout: 48

---

target: Cruzipain (Trypanosoma cruzi) (UniProt P25779); test: Inhibition of Trypanosoma cruzi catalytic activity of cruzain using Z-FR-AMC as substrate at 50 uM after 10 mins by fluorescence assay
Sequence (P25779 123-467 limits assumed): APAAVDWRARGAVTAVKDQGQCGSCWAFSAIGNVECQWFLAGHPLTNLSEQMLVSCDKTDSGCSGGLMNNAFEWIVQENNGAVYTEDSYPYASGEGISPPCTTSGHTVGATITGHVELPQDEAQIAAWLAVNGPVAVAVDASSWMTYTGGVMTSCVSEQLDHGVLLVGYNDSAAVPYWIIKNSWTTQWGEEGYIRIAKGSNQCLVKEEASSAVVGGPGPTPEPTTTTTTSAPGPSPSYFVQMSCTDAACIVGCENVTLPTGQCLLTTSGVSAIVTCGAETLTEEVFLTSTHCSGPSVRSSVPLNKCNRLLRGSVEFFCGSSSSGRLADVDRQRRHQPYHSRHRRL
measured endpoint: inhibition (%)
Your answer should be a plain number; it is taken to be in %.

Reference set (4 entries):
CC(C)c1ccc(OC/C(=N\NC(N)=S)c2ccc(Br)cc2)cc1 = 49.7
CCc1ccc(OC/C(=N\NC(N)=S)c2ccc(Br)cc2)cc1 = 75.1
NC(=S)N/N=C(/COc1ccc(Br)cc1)c1ccc(Br)cc1 = 11.8
NC(=S)N/N=C(/COc1ccc(Br)cc1)c1cccc2ccccc12 = 73.6

stdin: Data request, read-out inhibition, for NC(=S)N/N=C(\COc1ccc(F)c(Cl)c1)c1ccc(Br)cc1
stdout: 93.7

stdin: Data request, read-out inhibition, for NC(=S)N/N=C(/COc1ccc(Br)cc1)c1ccccc1
stdout: 67.6
